Recorded TGI, one value per entry.
System: HCT-15 colon
Test: NCI tumour cell line growth inhibition, 48 h
endpoint-label: TGI

CCOC(=O)C1=C(C)N(Cc2ccc(Cl)cc2Cl)[C@]2(C#N)C(O)=C(Cl)C(Cl)=C(O)[C@]12C#N :: > 100 µM
Cn1cnnc1SC(F)(F)c1nc2ccccc2o1 :: > 100 µM
O=[N+]([O-])c1ccc(/C=C\c2ccc3c(c2)OCO3)c([N+](=O)[O-])c1 :: 37.3 µM
C/C(CC(=O)Nc1cccc(Cl)c1C)=N\N=C(N)N :: > 100 µM
CCOc1cc2c(cc1O)CC[C@@H]1[C@@H]2CC[C@]2(C)[C@@H](O)CC[C@@H]12 :: 27.2 µM
COc1cccc(N2C(=O)C3CC(CC(C)(C)C)c4c([nH]c5ccccc45)C3C2=O)c1 (centres undefined) :: > 10 µM
Cn1c(SCc2c[nH]c3ccccc23)nnc1-c1ccc(Cl)cc1Cl :: > 100 µM
COC(=O)C1(Cc2ccccc2)Cc2c(C)ccc(C)c2C1=O (centres undefined) :: > 100 µM
O=C1c2ccccc2-n2c1nc1ccc(Cl)cc1c2=O :: > 100 µM
Cc1ccc(-c2nc(C(Cl)Cl)nc3cc(C)nn23)cc1 :: 4.61 µM
CC(=O)c1c(O)c2c([nH]c1=O)CCCC2 :: > 100 µM
CC(=O)O[C@H]1C[C@H]2[C@@H]([C@H](OC(C)=O)C[C@@H]3CC4(CC[C@@]32C)OOC2(CCCCC2)OO4)[C@@H]2CC[C@H]([C@H](C)CCC(=O)O)[C@@]12C :: 17 µM
Cc1ccc(NC(=O)c2ccc(NC3=C(Cl)C(=O)N(Cc4ccccc4)C3=O)cc2)cc1Cl :: 13.2 µM
COCCOCCOCCC(=O)NC1CC2CCC1(C)C2(C)C (centres undefined) :: > 100 µM
CON(C)C(=O)C(C)NC(=O)OC(C)(C)C (centres undefined) :: > 100 µM
Nc1c(C(=O)Nc2ccccc2O)[n+]([O-])c2ccccc2[n+]1[O-] :: > 100 µM
Cc1ccc(O)cc1Nc1ccnc2cc(-c3ccccn3)ccc12 :: 6.79 µM
C=CC(C)(O)CCC1C(=C)C(O)CC2C(C)(C)CCCC12C (centres undefined) :: 33.3 µM
CN(C)CCNC(=O)c1cccc2cc3ccc4ccccc4c3nc12 :: 0.593 µM
CC1(C)CC(O)CC(C)(C)N1.CC1(C)CC(O)CC(C)(C)N1.CC1(C)CC(O)CC(C)(C)N1.CC1(C)CC(O)CC(C)(C)N1.Cl.[Ti] :: > 100 µM
Cc1ccc(C(=O)N2C/C(=C/c3ccccc3)C(=O)/C(=C/c3ccccc3)C2)cc1 :: > 100 µM
CCN(CC)C(=O)CCCCCn1c2ccccc2c2c3c(c4c5ccccc5[nH]c4c21)C(=O)N(O)C3=O :: > 100 µM
C1=C(c2ccccc2)C(OC2Oc3ccccc3C=C2c2ccccc2)Oc2ccccc21 (centres undefined) :: > 100 µM
CCOc1cc(/C=C/C(=O)CC(=O)/C=C/c2ccc(OC(=O)CNCCN(CC)CC)c(OCC)c2)ccc1OC(=O)CNCCN(CC)CC :: 4.66 µM
Nc1n[nH]c2ccc([C@@H]3Nc4c(F)cc5[nH]ncc5c4[C@H]4C5CCC(C5)[C@@H]34)cc12 (some centres undefined) :: > 41.5 µM
COC(=O)C1=Nc2ccc(F)cc2/C1=C/c1sc(=S)[nH]c1O :: > 100 µM
CCOC(=O)[C@H]1Nc2c(cccc2[N+](=O)[O-])C2c3ccccc3CC21 (some centres undefined) :: > 100 µM
CCOP(=O)(/C=C/n1cnc2c(=O)n(C(C)=O)c(N)nc21)OCC :: > 100 µM
COc1ccc(/C=N/n2c(Cc3ccccc3)n[nH]c2=O)cc1 :: > 100 µM
CCN(CC)Cc1ccc(Nc2c3ccccc3nc3ccccc23)cc1 :: 2.56 µM
COc1ccc2c3c(c(C(=O)O)oc13)C(CCC(=O)O)CC2 (centres undefined) :: > 100 µM
CC(=O)Nc1cc(/C=C\C(=O)N2CC(CCl)c3c2cc(N)c2ccccc32)n(C)n1 (centres undefined) :: > 100 µM
CN1CC[C@]23c4c5ccc(O)c4OC2c2[nH]ncc2C[C@H]3[C@H]1C5 (some centres undefined) :: > 100 µM
CCOP(=O)(/C=C\n1ccc(=O)[nH]c1=O)OCC :: > 100 µM
COc1ccc(C(=O)/C=C/c2ccc(OCc3ccccc3)c(OC)c2)cc1OC :: > 100 µM
O=C1NC2=NN=C(c3ccc(Br)cc3)CN2NC12c1ccccc1-c1ccccc12 :: > 100 µM
COc1cccc2c1[C@H]1OC(=O)NC1CCCCC2 (some centres undefined) :: > 100 µM
O=c1[nH]nc(Cc2ccccc2)n1C1CC1 :: > 100 µM
Nc1ncnc2c1ncn2CCOC(c1ccccc1)P(=O)(O)O (centres undefined) :: > 100 µM

----------
Tested on: SK-MEL-5 melanoma
Test: NCI tumour cell line growth inhibition, 48 h
endpoint-label: TGI (µM)

COC(=O)c1ccccc1/C=C1\Cc2ccc3ccccc3c2C1C (stereo not drawn) :: 64.5
C=CC[PH+](c1ccccc1)c1ccccc1.C=CC[PH+](c1ccccc1)c1ccccc1.[Pt+2].[S-]c1ncccn1.[S-]c1ncccn1 :: 38.5

----------
Tested on: OVCAR-8 ovarian
Experiment: NCI tumour cell line growth inhibition, 48 h
Listed here: items and their measured TGI.
endpoint-label: TGI

COc1cccc(N2C(=O)C3CC(CC(C)(C)C)c4c([nH]c5ccccc45)C3C2=O)c1 (stereo not given) :: > 10 µM
c1ccc2c(c1)[O][Sn][O]2 :: > 150 µg/mL
Nc1c(C(=O)Nc2ccccc2O)[n+]([O-])c2ccccc2[n+]1[O-] :: > 100 µM
CCN(CC)CCS(=O)(=O)CCNc1ccnc2cc(Cl)ccc12 :: > 27.3 µM
CN1CCOCCOCCOc2ccccc2NC(=O)c2nc(cnc2N)-c2ccc(cc2)S1(=O)=O :: > 100 µM

----------
Test system: HCC-2998 colon
Experiment: NCI tumour cell line growth inhibition, 48 h
// TGI lookup, one value per entry
endpoint-label: TGI (µM)

C=CC(C)(O)CCC1C(=C)C(O)CC2C(C)(C)CCCC12C (centres undefined) :: 33.2
Oc1ccc(-c2[nH]c3ccccc3c2-c2nc3ccccc3o2)cc1 :: 7

----------
Tested on: OVCAR-8 ovarian
Assay: NCI tumour cell line growth inhibition, 48 h
TGI: recorded values
endpoint-label: TGI

Cc1ccc(C(=O)N2C/C(=C/c3ccccc3)C(=O)/C(=C/c3ccccc3)C2)cc1 :: > 100 µM
CC1(C)N=C(N)N=C(N)N1c1ccc(OCCCCNC(=O)Nc2cccc(S(=O)(=O)F)c2)c(Cl)c1 :: > 100 µM
O=S(=O)(O)c1ccc2c(N=Nc3c(O)ccc4ccccc34)cccc2c1 :: > 100 µM

----------
Tested on: T-47D breast
Test: NCI tumour cell line growth inhibition, 48 h
endpoint-label: TGI

CC1=C2CC(C)(C)CC(=O)C2(C)CCC1=O (stereo not given) :: > 100 µM
Cc1cn2c(/C=C3/C(=O)Nc4ccc(C(=O)O)cc43)c(C)nc2s1 :: > 100 µM
CCOC(=O)C1=CSC2=NC3=C(CCC/C3=C\c3cc(OC)c(OC)c(OC)c3)C(c3cc(OC)c(OC)c(OC)c3)N12 (stereo not given) :: > 100 µM
COc1cc2c3c(n(CCCN4CCSCC4)c(=O)c2cc1OC)-c1cc2c(cc1C3=O)OCO2 :: > 100 µM
Cn1c(CC(O)c2nc3ccccc3n2C)nc2ccccc21 (stereo not given) :: > 16.7 µM

----------
System: NCI-H460 lung
Classes used: TRUE for active, FALSE for inactive

CCN(CC)CCS(=O)(=O)CCNc1ccnc2cc(Cl)ccc12 :: FALSE
C=CC[PH+](c1ccccc1)c1ccccc1.C=CC[PH+](c1ccccc1)c1ccccc1.[Pt+2].[S-]c1ncccn1.[S-]c1ncccn1 :: FALSE
CN(C)c1ccc2c(c1)OC(N)=C(C#N)C2c1ccc2c(c1)CCCN2C (configuration not stated) :: FALSE
O=C(/C=C/c1cccc(Oc2ccc(Cl)cc2)c1)c1ccccc1 :: FALSE
Nc1n[nH]c2ccc([C@@H]3Nc4c(F)cc5[nH]ncc5c4[C@H]4C5CCC(C5)[C@@H]34)cc12 (some centres not stated) :: TRUE
C=C(C)[C@@H]1CC[C@]2(C(=O)n3ccnc3)CC[C@]3(C)[C@H](CC[C@@H]4[C@@]5(C)CCCNC(C)(C)[C@@H]5CC[C@]43C)[C@@H]12 :: FALSE
O=C(Nc1nc2c(s1)CCc1c-2c(Br)n(Cc2ccccc2)c1Br)c1ccccc1 :: FALSE
COc1ncc2cc1NS(=O)(=O)c1cccc(c1)C(=O)NCC1=CC=C(S1)c1ncnc3c1SC2=C3C :: TRUE
Cc1ccc(NC(=O)c2ccc(NC3=C(Cl)C(=O)N(Cc4ccccc4)C3=O)cc2)cc1Cl :: FALSE
O=C1c2ccccc2-c2c1c1ccc([N+](=O)[O-])cc1c(=O)n2CCCCl :: FALSE
OC(c1cc(-c2ccc(Cl)cc2)nc2c(Cl)cccc12)C1CCCCN1 (configuration not stated) :: FALSE
Cc1ccc(C(=O)N2C/C(=C/c3ccccc3)C(=O)/C(=C/c3ccccc3)C2)cc1 :: FALSE
